- test-name: Cytotoxicity against HUVEC assessed as viable cells at 128 microg/ml incubated for 48 hrs by CCK-8 assay relative to control
- Assay type: toxicity, cell-based
- study-conditions: human, at 128 µg/mL, read-out: Activity
quantity-name: viability at 48 h, 128 microg/ml (%)
Expressed in %, but write only the number.

The recorded viability at 48 h, 128 microg/ml for `CCCCCCCCNC(=O)c1ccc[n+](CC2=C(C(=O)[O-])N3C(=O)[C@@H](NC(=O)/C(=N\OC)c4csc(N)n4)[C@H]3SC2)c1.O=C(O)C(F)(F)F` is 100

* * *

- test-name: Cytotoxicity against HUVEC assessed as reduction in cell viability by CCK-8 assay
- Assay type: toxicity, cell-based
- study-conditions: human, HUVEC cells
quantity-name: CC50

INSERT INTO results (molecule, recorded_measurement) VALUES
  ('CCCCCCCCNC(=O)c1ccc[n+](CC2=C(C(=O)[O-])N3C(=O)[C@@H](NC(=O)/C(=N\OC)c4csc(N)n4)[C@H]3SC2)c1.O=C(O)C(F)(F)F', '> 128 µg/mL');

get_value(item= `CO/N=C(\C(=O)N[C@@H]1C(=O)N2C(C(=O)[O-])=C(C[n+]3ccccc3)CS[C@H]12)c1csc(N)n1.O=C(O)C(F)(F)F` , readout=CC50) returns > 128 µg/mL
